- System: giant foxtail (Setaria faberi)
- TEST_SUMMARY: Test G Pre-Emergence Protocol
- Type: in vivo
- RUN_PARAMETERS: Setaria faberi, pre-emergence, 312 h, 62.5 g ai/ha, evaluated after 13 days, 100=total damage to plant, 0=no damage to plant, read-out: plant damage rating, Foxtail, Giant
This listing pairs compounds with measured pest or weed control at 62.5 g/ha.
API: value field is a number in %; no unit string.

Known pest or weed control at 62.5 g/ha results, listed for orientation:
1. CN1C[C@@H](c2ccc(C(F)(F)F)cc2)[C@H](C(=O)Nc2nc[nH]n2)C1=O (racemic)
0
2. CN1C[C@@H](c2ccc(C(F)(F)F)cc2)[C@H](C(=O)Nc2cc(C(F)(F)F)nn2C)C1=O (racemic)
0
3. CN1C[C@@H](c2cnc(Cl)c(Cl)c2)[C@H](C(=O)Nc2cccc(F)c2F)C1=O (racemic)
90
4. Cc1ccc(NC(=O)[C@@H]2C(=O)N(C)C[C@H]2c2ccc(C(F)(F)F)cc2)c(F)c1 (racemic)
70
5. CN1C[C@H](c2ccc3occc3c2)[C@@H](C(=O)Nc2cccc(F)c2F)C1=O (racemic)
80
6. CN1C[C@@H](c2ccc(C(F)(F)F)cc2)[C@H](C(=O)Nc2cccc(F)c2C(F)(F)F)C1=O (racemic)
80
7. Cc1c(C#N)cccc1NC(=O)[C@H]1C(=O)N(C)C[C@@H]1c1ccc(C(F)(F)F)cc1 (racemic)
80
8. CN1C[C@@H](c2ccc(C(F)(F)F)cc2)[C@H](C(=O)Nc2ccc(C(F)(F)F)nc2Cl)C1=O (racemic)
10

Query string: Entry CN1C[C@H](c2cccc(C(F)F)c2)[C@@H](C(=O)Nc2cccc(F)c2F)C1=O (racemic) , system giant foxtail (Setaria faberi): what pest or weed control at 62.5 g/ha was measured?
Result string: 80

Query string: Continue with CN1C[C@@H](c2ccc(C(F)(F)F)cc2)[C@H](C(=O)Nc2cnccc2Cl)C1=O (racemic)
Result string: 0

====

- System: corn (Zea mays)
- TEST_SUMMARY: Test G Post-Emergence Protocol
- Type: in vivo
- RUN_PARAMETERS: Zea mays, post-emergence, 312 h, 15.625 g ai/ha, evaluated after 13 days (100=total damage to plant; 0=no damage to plant), read-out: Corn damage rating
METRIC_NAME: plant injury at 15.625 g/ha (%)
State the answer as a number, implicitly in %.

Some molecules with known plant injury at 15.625 g/ha results, for comparison:
1) Cc1cscc1NC(=O)[C@@H]1C(=O)N(C)C[C@H]1c1ccc(C(F)(F)F)cc1 (racemic)
0
2) Cc1ccc(NC(=O)[C@@H]2C(=O)N(C)C[C@H]2c2ccc(C(F)(F)F)cc2)c(F)c1 (racemic)
0
3) CN1C[C@@H](c2ccc(CF)cc2)[C@H](C(=O)Nc2cccc(F)c2F)C1=O (racemic)
0
4) COCCOc1cc([C@@H]2CN(C)C(=O)[C@H]2C(=O)Nc2cccc(F)c2C)ccc1C (racemic)
50
5) Cc1cc(C2CN(C)C(=O)C2C(=O)Nc2cccc(F)c2F)cc(C(F)(F)F)c1 (stereo not drawn)
30

Query string: Item under review: COc1cc(C2CN(C)C(=O)C2C(=O)Nc2cccc(F)c2F)cc(Cl)c1F (stereo not drawn) . Reported plant injury at 15.625 g/ha?
Result string: 10

Query string: Same for COc1ncc([C@@H]2CN(C)C(=O)[C@H]2C(=O)Nc2cccc(F)c2F)cc1Cl (racemic)
Result string: 10

These data points were gathered from patent US12077503B2.
